# Subject of test: Endothelial PAS domain-containing protein 1 (Homo sapiens, UniProt Q99814)
# Sequence (Q99814 whole entry, the tested form may be a part): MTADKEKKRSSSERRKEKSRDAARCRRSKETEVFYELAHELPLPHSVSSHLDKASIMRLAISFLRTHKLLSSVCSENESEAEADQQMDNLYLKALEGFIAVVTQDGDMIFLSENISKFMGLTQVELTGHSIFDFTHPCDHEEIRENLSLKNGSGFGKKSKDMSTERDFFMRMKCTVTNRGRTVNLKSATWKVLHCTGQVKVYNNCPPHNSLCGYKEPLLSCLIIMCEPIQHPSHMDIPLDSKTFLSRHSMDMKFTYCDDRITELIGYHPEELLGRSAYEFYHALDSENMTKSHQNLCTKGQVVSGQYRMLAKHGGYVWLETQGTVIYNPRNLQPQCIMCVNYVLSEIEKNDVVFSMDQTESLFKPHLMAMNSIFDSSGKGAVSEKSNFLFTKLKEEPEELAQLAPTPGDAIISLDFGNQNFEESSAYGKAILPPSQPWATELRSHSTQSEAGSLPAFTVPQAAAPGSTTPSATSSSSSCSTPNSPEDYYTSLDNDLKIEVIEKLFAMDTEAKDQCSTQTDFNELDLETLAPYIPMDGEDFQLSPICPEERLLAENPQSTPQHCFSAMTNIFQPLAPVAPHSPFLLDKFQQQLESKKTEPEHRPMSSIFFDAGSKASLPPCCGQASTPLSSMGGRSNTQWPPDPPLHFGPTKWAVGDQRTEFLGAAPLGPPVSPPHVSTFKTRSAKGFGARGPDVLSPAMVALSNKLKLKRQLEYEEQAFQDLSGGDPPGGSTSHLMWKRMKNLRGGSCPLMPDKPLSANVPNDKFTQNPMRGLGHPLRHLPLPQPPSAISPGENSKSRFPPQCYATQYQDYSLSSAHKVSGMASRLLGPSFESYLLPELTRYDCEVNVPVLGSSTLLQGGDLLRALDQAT
Range-based classes on measured EC50: zone 1 (below 0.02 µM), zone 2 (0.02 µM to below 3 µM), zone 3 (3 µM or more)

Look over these answered cases.
• O=S1(=O)c2ccc(Oc3cncc(Cl)c3)c(C(F)F)c2C(O)C1(F)F (stereo not given) = zone 2
• N#Cc1c(Oc2cc(F)cc(Cl)c2)ccc2c1C(O)C(F)(F)S2(=O)=O (stereo not given) = zone 3
• O=S1(=O)c2ccc(Oc3cc(F)cc(Cl)c3)c(C(F)F)c2C(O)C1(F)F (stereo not given) = zone 1
• N#Cc1cc(F)cc(Oc2ccc(S(=O)(=O)C(F)(F)F)c3c2CC(F)(F)[C@H]3O)c1 = zone 1
• O=S1(=O)c2ccc(Oc3cc(F)cc(Cl)c3)c(C(F)(F)F)c2C(O)C1(F)F (stereo not given) = zone 2
• N#Cc1cc(S(=O)(=O)C(F)(F)F)ccc1Oc1cc(F)cc(Cl)c1 = zone 3
• N#Cc1cc(F)cc(Oc2ccc(S(=O)(=O)CF)c3c2CC(F)(F)[C@H]3O)c1 = zone 1
• Cc1c(Oc2cc(F)cc(Cl)c2)ccc2c1C(O)C(F)(F)S2(=O)=O (stereo not given) = zone 2

With those in mind, consider the next compound.
Query :: Any idea which band `O=S(=O)(c1ccc(Oc2cc(F)cc(Cl)c2)c(Cl)c1)C(F)(F)F` is in?
Result :: zone 3

====

# Assay: AUCt in Sprague-Dawley rat at 10 mg/kg, po via gavage by UPLC analysis
# Assay type: ADME, organism-based
# Measurement context: in vivo
Measurement kind: AUC(0-t) (µM·h)
The response must be a number in µM·h with no trailing unit.

Solved cases below.
• N#Cc1cc(F)cc(Oc2ccc(S(=O)(=O)CF)c3c2CC(F)(F)[C@H]3O)c1 = 2.14
• CS(=O)(=O)c1ccc(Oc2cc(F)cc(C#N)c2)c2c1[C@H](O)C(F)(F)C2 = 5.12
• N#Cc1cc(F)cc(Oc2ccc(S(=O)(=O)C(F)F)c3c2CC(F)(F)[C@H]3O)c1 = 0.39

Kindly consider the entry below.
Query :: Find the recorded AUC(0-t) belonging to `N#Cc1cc(F)cc(Oc2ccc3c(c2C(F)F)[C@@H](O)C(F)(F)S3(=O)=O)c1` and report it.
Result :: 5.49

====

# Assay: Clearance in Sprague-Dawley rat at 3 mg/kg, iv by UPLC analysis
# Type: ADME, organism-based
# Measurement context: in vivo
Reported clearance values for the following molecules.

These recorded examples may help you get a feel for the data.
- N#Cc1cc(F)cc(Oc2ccc(S(=O)(=O)C(F)F)c3c2CC(F)(F)[C@H]3O)c1: 57.7 mL/min/kg
- CS(=O)(=O)c1ccc(Oc2cc(F)cc(C#N)c2)c2c1[C@H](O)C(F)(F)C2: 34.6 mL/min/kg
- N#Cc1cc(F)cc(Oc2ccc3c(c2C(F)F)[C@@H](O)C(F)(F)S3(=O)=O)c1: 27.2 mL/min/kg

# next molecule below
Query :: What value of measured clearance is listed for `N#Cc1cc(F)cc(Oc2ccc(S(=O)(=O)CF)c3c2CC(F)(F)[C@H]3O)c1` ?
Result :: 57.6 mL/min/kg

====

# CLint scaled at 1 µM per record follows
# Assay: Intrinsic clearance in rat liver microsomes at 1 uM measured up to 30 mins by LC-MS/MS analysis
# Assay type: ADME, microsome
# Measurement context: read-out: CLH
Could you give me the number in mL/min/kg? Just the number is fine.

- N#Cc1cc(F)cc(Oc2ccc3c(c2C(F)F)[C@@H](O)C(F)(F)S3(=O)=O)c1: 9.1

Kindly review the next compound as well.
Query :: Given the compound `CS(=O)(=O)c1ccc(Oc2cc(F)cc(C#N)c2)c2c1[C@H](O)C(F)(F)C2` , what is its reported CLint scaled at 1 µM?
Result :: 22.6

====

# Assay: Intrinsic clearance in human liver microsomes at 1 uM measured up to 30 mins by LC-MS/MS analysis
# Type: ADME, microsome
# Measurement context: read-out: CLH
Measurement kind: CLint scaled at 1 µM (mL/min/kg)
Numeric only. Scale: mL/min/kg

Query :: // returns reported CLint scaled at 1 µM for input `CS(=O)(=O)c1ccc(Oc2cc(F)cc(C#N)c2)c2c1[C@H](O)C(F)(F)C2`
Result :: 4.7

====

# Assay: Volume of distribution at steady state in CD1 mouse at 3 mg/kg, iv by UPLC analysis
# Type: ADME, organism-based
# Measurement context: in vivo, read-out: Vdss
Field 'label' (enum: true (1) / false (0)). Set to true (1) when Vd is strictly under 10 L/kg; else false (0).

• N#Cc1cc(F)cc(Oc2ccc(S(=O)(=O)CF)c3c2CC(F)(F)[C@H]3O)c1 = false (0)
• CS(=O)(=O)c1ccc(Oc2cc(F)cc(C#N)c2)c2c1[C@H](O)C(F)(F)C2 = true (1)
• O=S(=O)(c1ccc(Oc2cncc(Cl)c2)c2c1[C@H](O)C(F)(F)C2)C(F)F = false (0)

Query :: Is it true that Vd reported for `N#Cc1cc(F)cc(Oc2ccc3c(c2C(F)F)[C@@H](O)C(F)(F)S3(=O)=O)c1` is less than 10 L/kg?
Result :: true (1)

Query :: Here's an entry: `N#Cc1cc(F)cc(Oc2ccc(S(=O)(=O)C(F)F)c3c2CC(F)(F)[C@H]3O)c1` . Is its Vd below 10 L/kg?
Result :: true (1)

====

# Assay: Intrinsic clearance in mouse liver microsomes at 1 uM measured up to 30 mins by LC-MS/MS analysis
# Assay type: ADME, microsome
# Measurement context: read-out: CLH
Listing: CLint scaled at 1 µM of selected molecules
Numbers only here, please. The scale is L/h/kg.

• N#Cc1cc(F)cc(Oc2ccc(S(=O)(=O)CF)c3c2CC(F)(F)[C@H]3O)c1 = 1.61
• N#Cc1cc(F)cc(Oc2ccc3c(c2C(F)F)[C@@H](O)C(F)(F)S3(=O)=O)c1 = 0.354
• CS(=O)(=O)c1ccc(Oc2cc(F)cc(C#N)c2)c2c1[C@H](O)C(F)(F)C2 = 1.19
• N#Cc1cc(F)cc(Oc2ccc(S(=O)(=O)C(F)F)c3c2CC(F)(F)[C@H]3O)c1 = 1.93

Turning now to a further record.
Query :: Sample `O=S(=O)(c1ccc(Oc2cncc(Cl)c2)c2c1[C@H](O)C(F)(F)C2)C(F)F` — what was its CLint scaled at 1 µM?
Result :: 1.21

====

# Assay: Half life in Sprague-Dawley rat at 10 mg/kg, po via gavage by UPLC analysis
# Type: ADME, organism-based
# Measurement context: in vivo
Measurement kind: half-life

Query :: Which half-life value belongs to `N#Cc1cc(F)cc(Oc2ccc(S(=O)(=O)C(F)F)c3c2CC(F)(F)[C@H]3O)c1` ?
Result :: 5.4 h

Query :: Need half-life, item `CS(=O)(=O)c1ccc(Oc2cc(F)cc(C#N)c2)c2c1[C@H](O)C(F)(F)C2`
Result :: 3.3 h

Query :: Field request: half-life | item: `N#Cc1cc(F)cc(Oc2ccc3c(c2C(F)F)[C@@H](O)C(F)(F)S3(=O)=O)c1`
Result :: 3.7 h

Query :: Query: half-life; subject: `N#Cc1cc(F)cc(Oc2ccc(S(=O)(=O)CF)c3c2CC(F)(F)[C@H]3O)c1`
Result :: 2.9 h

====

# Assay: Half life in CD1 mouse at 10 mg/kg, po by UPLC analysis
# Type: ADME, organism-based
# Measurement context: in vivo
Label f if half-life falls below 6 h; label t in every other case.

A selection of reference data follows.
- O=S(=O)(c1ccc(Oc2cncc(Cl)c2)c2c1[C@H](O)C(F)(F)C2)C(F)F: f
- N#Cc1cc(F)cc(Oc2ccc3c(c2C(F)F)[C@@H](O)C(F)(F)S3(=O)=O)c1: t
- N#Cc1cc(F)cc(Oc2ccc(S(=O)(=O)C(F)F)c3c2CC(F)(F)[C@H]3O)c1: t
- CS(=O)(=O)c1ccc(Oc2cc(F)cc(C#N)c2)c2c1[C@H](O)C(F)(F)C2: f

Query :: Determine whether this compound has half-life no lower than 6 h: `N#Cc1cc(F)cc(Oc2ccc(S(=O)(=O)CF)c3c2CC(F)(F)[C@H]3O)c1`
Result :: f

====

# Assay: Intrinsic clearance in monkey liver microsomes at 1 uM measured up to 30 mins by LC-MS/MS analysis
# Format: ADME, Macaca mulatta, microsome
# Measurement context: rhesus monkey, read-out: CLH
Measurement kind: CLint scaled at 1 µM (mL/min/kg)
Give a bare numeral; the unit mL/min/kg is implied.

Query :: Which CLint scaled at 1 µM is listed for `CS(=O)(=O)c1ccc(Oc2cc(F)cc(C#N)c2)c2c1[C@H](O)C(F)(F)C2` ?
Result :: 5.4

// provenance: ChEMBL document CHEMBL4152377
